system: OVCAR-3 ovarian; assay: NCI tumour cell line growth inhibition, 48 h
Recorded TGI for the following compounds
property-measured: TGI (µM)

- compound: "OC1(c2ccc(Cl)cc2)c2ccc3ccccc3c2C2=N[C@H]3CCCC[C@@H]3N21 (some centres undefined)"
  relation-symbol: "="
  reported-value: 21.9
- compound: "COc1cc2c(/C=C3/C(=O)Nc4ccccc43)c(Cl)[nH]c2cc1C"
  relation-symbol: ">"
  reported-value: 39.9
- compound: "N#Cc1cc([N+](=O)[O-])ccc1NC(=O)C(=O)Nc1n[nH]c(N)n1"
  relation-symbol: ">"
  reported-value: 100
- compound: "O=C1CSC(c2cccs2)N1c1nc2cc3sc(N4C(=O)CSC4c4cccs4)nc3cc2s1 (centres undefined)"
  relation-symbol: ">"
  reported-value: 50
- compound: "CN(C)S(=O)(=O)Nc1nnc(S(N)(=O)=O)s1"
  relation-symbol: ">"
  reported-value: 100
- compound: "CCCn1cnc2c(SCc3ccccc3Cl)nc(N)nc21"
  relation-symbol: "="
  reported-value: 79.6
- compound: "COC(=O)c1c/c(=N\\NC(=O)CC(=O)Nc2ccccc2OC)c2ccccc2o1"
  relation-symbol: ">"
  reported-value: 100
- compound: "CCCCc1ccc(Nc2nc3c(ncn3COCCO)c(=O)[nH]2)cc1"
  relation-symbol: ">"
  reported-value: 100
- compound: "O=C1O[C@@H](c2ccc3c(c2)OCO3)C2C(=O)O[C@@H](c3ccc4c(c3)OCO4)C12 (some centres undefined)"
  relation-symbol: ">"
  reported-value: 100
- compound: "CC1(C(=O)O)CCCC1C(=O)O (centres undefined)"
  relation-symbol: ">"
  reported-value: 100
- compound: "Cc1cccc(C)c1NC(=O)C(=O)C1C(=O)NC(=O)NC1=O"
  relation-symbol: ">"
  reported-value: 100
- compound: "CCOC(=O)[C]1([Bi]([CH3])[CH3])N=NC(C(=O)OC)=C1C(=O)OC (centres undefined)"
  relation-symbol: "="
  reported-value: 31.7
- compound: "CC(C)(C)c1cc(/C=C(\\C#N)C(=O)NCCO)cc(C(C)(C)C)c1O"
  relation-symbol: "="
  reported-value: 33.5
- compound: "CC(=O)OC[C@]1(C)C=C2C(=O)[C@](C)(O)C3(CC3)C(C)=C2[C@H]1O"
  relation-symbol: "="
  reported-value: 0.417
- compound: "C=C1C(=O)O[C@@]23C1CC[C@@H](C)C2CC[C@@]1(C)OC31 (some centres undefined)"
  relation-symbol: "="
  reported-value: 13.4
- compound: "Nc1cc(N)c2nc(-c3ccccc3)c(Nc3ccc(Cl)c(Cl)c3)nc2c1"
  relation-symbol: "="
  reported-value: 9.91
- compound: "C=C1C(=O)O[C@H]2[C@H]1CC/C(COC(=O)c1ccc3ccccc3c1)=C\\CC[C@@]1(C)O[C@@H]21"
  relation-symbol: "="
  reported-value: 1.77
- compound: "NC(=O)c1cc2ccccc2o/c1=N/O"
  relation-symbol: ">"
  reported-value: 100
- compound: "O=C(CSc1n[nH]c(=O)[nH]c1=O)NNC(=O)c1cccc2nc3ccccc3nc12"
  relation-symbol: ">"
  reported-value: 100
- compound: "CC1S/C(=N/c2nnc(-c3ccccc3)o2)NC1=O (centres undefined)"
  relation-symbol: "="
  reported-value: 69.5
- compound: "NC(CCC(=O)NC(CSSCCCCS(=O)O)C(=O)NCC(=O)O)C(=O)O (centres undefined)"
  relation-symbol: ">"
  reported-value: 100
- compound: "CC(C)(CC(=O)Nc1ccccc1)C(=O)O"
  relation-symbol: ">"
  reported-value: 100
- compound: "CC1(C)OC2[C@@H](CNC(=O)NC(=O)NC(=O)CI)O[C@@H](n3cnc4c(NC(=O)Nc5ccccc5)ncnc43)[C@H]2O1 (some centres undefined)"
  relation-symbol: "="
  reported-value: 12.6
- compound: "c1ccc2c3c(c(N4CCOCC4)nc2c1)CCCC3"
  relation-symbol: ">"
  reported-value: 100

---

Recorded TGI for the following molecules
test system: MDA-MB-435; experiment: NCI tumour cell line growth inhibition, 48 h
property-measured: TGI (µM)

- molecule: "Oc1c(CN2CCC(N3CCCCC3)CC2)cc(Cc2cc(CN3CCC(N4CCCCC4)CC3)c(O)c3ncccc23)c2cccnc12"
  relation-symbol: "="
  reported-value: 6.41
- molecule: "Cc1cc2[nH]c3c(C#N)c4c(c(=O)n3c2cc1C)CCCC4"
  relation-symbol: ">"
  reported-value: 100
- molecule: "Cn1c(=O)c2[nH]c(SCc3ccccn3)nc2n(C)c1=S"
  relation-symbol: ">"
  reported-value: 100
- molecule: "N#Cc1c(-c2ccc(F)cc2)nc(N/N=C/c2c[nH]c3ccccc23)nc1N1CCOCC1"
  relation-symbol: "="
  reported-value: 74.9
- molecule: "CC(=O)OCC(OC(C)=O)C1C[C@H]2O[C@@H]3[C@H](C[C@H]2O1)O[C@@]1(C[C@@H]3C)C[C@H](C)[C@@H]2O[C@]3(C[C@@H]2O1)C[C@H]1O[C@H]2[C@H](C)[C@H]4OC(=O)CC5CC[C@H]6OC7[C@H]8O[C@]9(CC[C@H]%10CC(O)(CO)[C@H](CC[C@H]%11C[C@@H](C)C(O)(CO)C(C[C@@H]4O[C@H]2C[C@H]1O3)O%11)O%10)CC8O[C@@H]7[C@@H](O9)[C@H]6O5 (stereo partly specified)"
  relation-symbol: "="
  reported-value: 0.0139
- molecule: "O=[N+]([O-])c1ccc(NC(=S)N=Nc2c(O)[nH]c3ccc(Br)cc23)cc1"
  relation-symbol: "="
  reported-value: 25.4

---

system: HCT-116 colon; assay: NCI tumour cell line growth inhibition, 48 h; in the data active = GI50 below about 0.43 µM; inactive = the rest
Labels: active, inactive

- smiles-text: "COc1cc(C2=C(c3ccccc3)COC2=O)cc(OC)c1OC"
  assigned-category: "inactive"
- smiles-text: "CN1CCN(C(=O)OCc2nc3c(N4CCOCC4)nc(Cl)nc3n2C)CC1"
  assigned-category: "active"
- smiles-text: "[Cl-].[Dy+3].[O-]/N=C(\\c1ccccc1)c1ccccn1.[O-]/N=C(\\c1ccccc1)c1ccccn1.[O-]/N=C(\\c1ccccc1)c1ccccn1"
  assigned-category: "inactive"
- smiles-text: "CCc1ccc(/C=C\\c2cc(OC)c(OC)c(OC)c2)cc1"
  assigned-category: "active"
- smiles-text: "CCN(CC)c1ccc(/C=C/c2ccc3cc(C)ccc3[n+]2CC)cc1"
  assigned-category: "active"
- smiles-text: "O=C1c2cc(Cl)ccc2S(=O)(=O)c2c(NCCCNCCO)nc3ccccc3c21"
  assigned-category: "inactive"

---

tested on: 786-0 renal; assay: NCI tumour cell line growth inhibition, 48 h
Recorded GI50 for the following compounds

- compound: "O=C1CCCCN1CCCCC#Cc1ccccc1C#Cc1ccc([N+](=O)[O-])cc1"
  GI50: "8.41 µM"
- compound: "[Cl-].[Dy+3].[O-]/N=C(\\c1ccccc1)c1ccccn1.[O-]/N=C(\\c1ccccc1)c1ccccn1.[O-]/N=C(\\c1ccccc1)c1ccccn1"
  GI50: "32.2 µM"
- compound: "FC(F)(F)c1cccc(Nc2nccc(-c3cnn4nc(-c5ccccc5)ccc34)n2)c1"
  GI50: "5.22 µM"
- compound: "COc1cc(C2NC(=O)c3ccccc3N2)ccc1OCCCCCOc1c(OC)cc(C2=NOC(c3cc(OC)c(OC)c(OC)c3)C2)cc1OC (stereo not drawn)"
  GI50: "27.4 µM"
- compound: "CC(C)c1nc(CN(C)C(=O)N[C@H](C(=O)N[C@@H](Cc2ccccc2)C[C@H](O)[C@H](Cc2ccccc2)NC(=O)OCc2cncs2)C(C)C)cs1"
  GI50: "24.7 µM"
- compound: "COC(=O)[C@]12CC[C@@H](C)[C@H](C)[C@@H]1C1=CC[C@@H]3[C@@]4(C)C/C(=N\\O)[C@H](O)[C@@]5(C)COC(=C45)C[C@@]3(C)[C@]1(C)CC2"
  GI50: "1.76 µM"
- compound: "COc1ccc(/C(COc2c(-c3ccccc3)oc3ccccc3c2=O)=N\\O)cc1"
  GI50: "40.6 µM"
- compound: "CCOc1cc2c(Cl)ncnc2c(OCC)c1OCC"
  GI50: "19 µM"

---

Recorded GI50 for the following compounds
tested on: COLO 205 colon; experiment: NCI tumour cell line growth inhibition, 48 h

- compound: "COc1cc(C2=NOC(c3cc(OC)c(OC)c(OC)c3)C2)ccc1OCCCCOc1cc2c(cc1OC)C(=O)N1CCC[C@H]1C=N2 (some centres not stated)"
  GI50: "0.245 µM"
- compound: "CCc1ccc(/C=C\\c2cc(OC)c(OC)c(OC)c2)cc1"
  GI50: "0.0212 µM"
- compound: "[Cl-].[Dy+3].[O-]/N=C(\\c1ccccc1)c1ccccn1.[O-]/N=C(\\c1ccccc1)c1ccccn1.[O-]/N=C(\\c1ccccc1)c1ccccn1"
  GI50: "33.5 µM"
- compound: "O=C(/C(Br)=C/c1ccccc1)c1ccccc1"
  GI50: "1.09 µM"
- compound: "OCc1c[nH]c2ccccc12"
  GI50: "16 µM"
- compound: "Cc1ccc(NC(=O)c2cccc(N(C)C)c2)cc1NC(=O)c1ccc(O)cc1"
  GI50: "> 64.7 µM"
- compound: "COc1cc(C2NC(=O)c3ccccc3N2)ccc1OCCCCCOc1c(OC)cc(C2=NOC(c3cc(OC)c(OC)c(OC)c3)C2)cc1OC (configuration not stated)"
  GI50: "> 59 µM"
